measurement-target: T1, human RXFP1 (human, UniProt Q9HBX9 1-757)
T1 sequence (looked up): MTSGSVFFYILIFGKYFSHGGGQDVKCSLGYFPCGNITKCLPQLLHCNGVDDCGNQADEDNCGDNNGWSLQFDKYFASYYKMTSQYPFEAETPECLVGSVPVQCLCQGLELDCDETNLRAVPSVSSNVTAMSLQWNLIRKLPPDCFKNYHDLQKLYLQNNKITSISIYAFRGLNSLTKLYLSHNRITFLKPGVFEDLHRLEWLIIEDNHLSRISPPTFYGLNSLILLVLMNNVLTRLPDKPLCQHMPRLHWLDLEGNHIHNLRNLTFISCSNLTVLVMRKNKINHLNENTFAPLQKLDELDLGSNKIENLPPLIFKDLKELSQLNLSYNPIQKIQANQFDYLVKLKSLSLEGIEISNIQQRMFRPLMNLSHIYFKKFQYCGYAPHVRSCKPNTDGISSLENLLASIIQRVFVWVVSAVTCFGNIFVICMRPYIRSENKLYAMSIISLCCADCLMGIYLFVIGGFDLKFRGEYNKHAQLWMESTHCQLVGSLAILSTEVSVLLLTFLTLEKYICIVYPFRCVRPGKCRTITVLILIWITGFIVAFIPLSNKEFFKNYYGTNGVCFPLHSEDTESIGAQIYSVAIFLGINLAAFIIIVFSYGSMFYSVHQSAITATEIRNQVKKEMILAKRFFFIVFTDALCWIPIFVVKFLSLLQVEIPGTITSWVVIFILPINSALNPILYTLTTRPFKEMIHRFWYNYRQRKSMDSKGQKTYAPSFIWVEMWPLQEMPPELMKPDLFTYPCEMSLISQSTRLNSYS
assay-summary: cell-based or functional assay
metric: Potency (cAMP, transient hRXFP1 in HEK293) (nM)

binder: SEQ ID NO: 116 (Fc fusion) DKTHTCPPCPAPEAAGGPSVFLFPPKPKDTLMISRTPEVTCVVVDVSHEDPEVKFNWYVDGVEVHNAKTKPREEQYNSTYRVVSVLTVLHQDWLNGKEYKCKVSNKALAAPIEKTISKAKGQPREPQVYTLPPSRDELTKNQVSLTCLVKGFYPSDIAVEWESNGQPENNYKTTPPVLDSDGSFFLYSKLTVDKSRWQQGNVFSCSVLHEALHSHYTQKSLSLSPGEGGSDSWQEEVIKLCGRELVRAQIAICGQSTASDAAGAQADAGARQLYSALANKCCHVGCTKQSLAQFC
measured: 25.9

Reference source for all entries: patent US20250333467A1
